meta.source: paper PMC2722949

TARGET SYSTEM: Btk SH2 domain S371P (UniProt Q06187 270-387, S371P)
Sequence (Q06187 270-387 S371P): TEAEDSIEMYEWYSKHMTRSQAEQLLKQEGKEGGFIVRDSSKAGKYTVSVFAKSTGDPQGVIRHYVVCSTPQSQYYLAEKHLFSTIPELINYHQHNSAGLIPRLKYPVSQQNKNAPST
PROTOCOL TEXT: NMR titration
Where no end group is shown, it is not given here. [ ]: non-standard residue; d: D form. pY = N[C@@H](Cc1ccc(OP(=O)(O)O)cc1)C(=O)O
OBSERVABLE: Kd (µM)
Write it as a number; the unit µM goes unstated.

Looking up GDG[pY]EEISPLLL [Btk SH2 phospho-peptide ligand (GDGpYEEISPLLL)] , I found its Kd recorded as 600
